Tested on: Escherichia coli
assay-overview: Antimicrobial activity against Escherichia coli assessed as reduction in microbial growth by broth micro-dilution method
Assay type: functional
Numbered stars: 1 amine (or outer) side, 2 acyl side, 3 side chain; on linkers, the order of the positions; unused ones are H or OH. Square brackets hold non-standard residues; d marks the D form. Peptide text beside a SMILES is read from it. X2 = CCC(C)N(CC(=O)[*:2])[*:1]; N(iPr)Gly = CC(C)NCC(=O)O; Nphe = O=C(O)CNCc1ccccc1
property: MIC

*Q* // MIC lookup, key: CC[C@H](C)[C@H](NC(=O)[C@H](CCCNC(=N)N)NC(=O)[C@H](CCCCN)NC(=O)[C@H](CC(C)C)NC(=O)[C@H](CC(C)C)NC(=O)CNC(C)C)C(=O)N[C@@H](CCCCN)C(=O)N[C@H](C(=O)N[C@@H](CC(C)C)C(=O)N[C@@H](CC(C)C)C(N)=O)[C@@H](C)O (H-[N(iPr)Gly]LLKRIKTLL-NH2)
*A* > 100 µM

*Q* // MIC lookup, key: CC[C@H](C)[C@H](NC(=O)[C@H](CCCNC(=N)N)NC(=O)[C@H](CCCCN)NC(=O)[C@H](CC(C)C)NC(=O)[C@H](CC(C)C)NC(=O)CNCc1ccccc1)C(=O)N[C@@H](CCCCN)C(=O)N[C@H](C(=O)N[C@@H](CC(C)C)C(=O)N[C@@H](CC(C)C)C(N)=O)[C@@H](C)O (H-[Nphe]LLKRIKTLL-NH2)
*A* 50 µM

*Q* // MIC lookup, key: CCC(C)NCC(=O)N[C@@H](CC(C)C)C(=O)N[C@@H](CC(C)C)C(=O)N[C@@H](CCCCN)C(=O)N[C@@H](CCCNC(=N)N)C(=O)N[C@H](C(=O)N[C@@H](CCCCN)C(=O)N[C@H](C(=O)N[C@@H](CC(C)C)C(=O)N[C@@H](CC(C)C)C(N)=O)[C@@H](C)O)[C@@H](C)CC (stereo partly drawn) (H-[X2]LLKRIKTLL-NH2)
*A* > 100 µM
